assay: LLD solubility in NMP and in aqueous povidone; type: physicochemical; conditions: NMP (n-methyl-2-pyrrolidone), organic solvent or mixture; read-out: Solubility in NMP
parameter_measured: solubility

For the molecule shown here, Nc1cccc2c1CN(C1CCC(=O)NC1=O)C2=O (stereo not shown) , give the reported solubility. ~300 mg/mL

====

assay: LLD solubility in NMP and in aqueous povidone; format: physicochemical; settings: aqueous povidone, aqueous with cosolvent or surfactant or cyclodextrin; with povidone; read-out: Aqueous solubility
parameter_measured: solubility

For the molecule shown here, Nc1cccc2c1CN(C1CCC(=O)NC1=O)C2=O (stereo not shown) [LLD] , give the reported solubility. ≤ 800 µg/mL

Cited source: patent US12390457B2
